- tgt: PRMT5-MEP50 (Homo sapiens, UniProt O14744)
- Construct: The compounds were tested by means of FP with the full-length PRMT5-MEP50 complex; made in house
- Sequence (O14744 whole entry): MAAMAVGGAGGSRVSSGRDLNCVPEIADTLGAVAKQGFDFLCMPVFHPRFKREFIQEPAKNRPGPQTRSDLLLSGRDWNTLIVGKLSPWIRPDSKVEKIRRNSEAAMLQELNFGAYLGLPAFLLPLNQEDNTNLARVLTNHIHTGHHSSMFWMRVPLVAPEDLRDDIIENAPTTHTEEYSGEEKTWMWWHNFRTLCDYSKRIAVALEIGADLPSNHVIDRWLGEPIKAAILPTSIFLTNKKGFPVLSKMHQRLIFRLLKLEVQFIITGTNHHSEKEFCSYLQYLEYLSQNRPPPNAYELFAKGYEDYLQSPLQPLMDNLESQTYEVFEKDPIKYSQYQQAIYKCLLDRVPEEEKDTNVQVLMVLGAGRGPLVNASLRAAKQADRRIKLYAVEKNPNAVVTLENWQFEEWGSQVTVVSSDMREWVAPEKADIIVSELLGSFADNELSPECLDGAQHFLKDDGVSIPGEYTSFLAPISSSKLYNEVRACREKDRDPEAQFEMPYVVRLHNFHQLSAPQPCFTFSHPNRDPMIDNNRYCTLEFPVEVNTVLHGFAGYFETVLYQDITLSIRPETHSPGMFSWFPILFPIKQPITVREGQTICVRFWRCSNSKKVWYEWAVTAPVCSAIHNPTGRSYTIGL
- Sequence (Q9BQA1 whole entry partner): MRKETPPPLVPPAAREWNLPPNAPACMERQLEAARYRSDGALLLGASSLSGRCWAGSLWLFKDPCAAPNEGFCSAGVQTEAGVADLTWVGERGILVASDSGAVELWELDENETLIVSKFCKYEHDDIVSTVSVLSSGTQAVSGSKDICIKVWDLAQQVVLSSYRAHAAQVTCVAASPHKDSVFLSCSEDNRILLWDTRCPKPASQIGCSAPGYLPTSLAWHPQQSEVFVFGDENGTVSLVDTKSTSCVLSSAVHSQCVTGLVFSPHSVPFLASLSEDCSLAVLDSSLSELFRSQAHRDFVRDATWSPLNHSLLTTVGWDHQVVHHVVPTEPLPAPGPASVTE
- experiment description: Direct binding fluorescence polarization (FP) assay of FITC-labeled peptides
- measurement setup: supplementary CSV, read-out: PRMT5-MEP50 Kd
Square brackets hold non-standard residues; d marks the D form. Peptide text beside a SMILES is read from it. * marks the point of attachment. FITC = O=C1OC2(c3ccc(O)cc3Oc3cc(O)ccc32)c2ccc(NC(=S)*)cc21; Phe(4-guanidino) = N=C(N)Nc1ccc(C[C@H](N)C(=O)O)cc1; 1Nal = N[C@@H](Cc1cccc2ccccc12)C(=O)O; hPhe = N[C@@H](CCc1ccccc1)C(=O)O
Please provide measured Kd for the entries that follow.

Reading of Kd for CC(=O)N[C@@H](Cc1ccc(O)cc1)C(=O)N1CCC[C@H]1C(=O)NCC(=O)N[C@@H](CCC(N)=O)C(=O)N[C@@H](Cc1ccccc1)C(=O)N[C@@H](CC(=O)O)C(=O)N[C@@H](CC(=O)O)C(=O)N[C@@H](C)C(=O)N[C@@H](CC(=O)O)C(=O)N[C@@H](CCCCNC(=S)Nc1ccc2c(c1)C(=O)OC21c2ccc(O)cc2Oc2cc(O)ccc21)C(N)=O [Compound S2] (Ac-YPGQFDDADK(FITC)-NH2) with PRMT5-MEP50 (Homo sapiens, UniProt O14744): > 1000 nM

Reading of Kd for CC(=O)N[C@H](C(=O)N1CCC[C@H]1C(=O)NCC(=O)N[C@@H](CCC(N)=O)C(=O)N[C@@H](CCc1ccccc1)C(=O)N[C@@H](CC(=O)O)C(=O)N[C@@H](CC(=O)O)C(=O)N[C@@H](C)C(=O)N[C@@H](CC(=O)O)C(=O)N[C@@H](CCCCNC(=S)Nc1ccc2c(c1)C(=O)OC21c2ccc(O)cc2Oc2cc(O)ccc21)C(N)=O)C(C)C [Compound S21] (Ac-VPGQ[hPhe]DDADK(FITC)-NH2) with PRMT5-MEP50 (Homo sapiens, UniProt O14744): > 1000 nM

Reading of Kd for CC(C)[C@H](NC(=O)[C@H](CCCNC(=N)N)NC(=O)[C@H](CO)NC(=O)COCCOCCNC(=S)Nc1ccc2c(c1)C(=O)OC21c2ccc(O)cc2Oc2cc(O)ccc21)C(=O)N[C@H](C(=O)N1CCC[C@H]1C(=O)N[C@@H]1CCNC(=O)CC[C@H](C(=O)N[C@@H](CC(=O)O)C(=O)N[C@@H](C)C(=O)N[C@@H](CC(=O)O)C(N)=O)NC(=O)[C@H](Cc2ccccc2)NC(=O)[C@H](CCC(N)=O)NC1=O)C(C)C with PRMT5-MEP50 (Homo sapiens, UniProt O14744): > 2000 nM

Reading of Kd for CC(=O)N[C@H](C(=O)N1CCC[C@H]1C(=O)NCC(=O)N[C@@H](CCC(N)=O)C(=O)N[C@@H](Cc1cccc2ccccc12)C(=O)N[C@@H](CC(=O)O)C(=O)N[C@@H](CC(=O)O)C(=O)N[C@@H](C)C(=O)N[C@@H](CC(=O)O)C(=O)N[C@@H](CCCCNC(=S)Nc1ccc2c(c1)C(=O)OC21c2ccc(O)cc2Oc2cc(O)ccc21)C(N)=O)C(C)C [Compound S25] (Ac-VPGQ[1Nal]DDADK(FITC)-NH2) with PRMT5-MEP50 (Homo sapiens, UniProt O14744): > 1000 nM

Reading of Kd for CC(=O)N[C@H](C(=O)N1CCC[C@H]1C(=O)NCC(=O)N[C@@H](CCC(N)=O)C(=O)N[C@@H](Cc1ccc(N=C(N)N)cc1)C(=O)N[C@@H](CC(=O)O)C(=O)N[C@@H](CC(=O)O)C(=O)N[C@@H](C)C(=O)N[C@@H](CC(=O)O)C(=O)N[C@@H](CCCCNC(=S)Nc1ccc2c(c1)C(=O)OC21c2ccc(O)cc2Oc2cc(O)ccc21)C(N)=O)C(C)C [Compound S20] (Ac-VPGQ[Phe(4-guanidino)]DDADK(FITC)-NH2) with PRMT5-MEP50 (Homo sapiens, UniProt O14744): > 1000 nM

Where do the numbers come from? From paper PMC9706563.
